# System: CQ-resistant (W-2) strain of P. falciparum
# assay name: 3H-adenosine incorporation, chloroquine-resistant P. falciparum
# Type: cell-based
# assay context: Plasmodium falciparum, read-out: IC50 R
pIC50: −log10 of the molar value.
assay readout: pIC50

COc1ccc2cc1Oc1ccc(cc1)C[C@H]1c3c(cc4c(c3Oc3cc5c(cc3OC)CCN(C)[C@@H]5C2)OCO4)CCN1C = 6.03
COc1cc(C[C@H]2c3cc(OC)c(OC)c(OC)c3CCN2C)c(Oc2cc3c(cc2OC)-c2c(OC)c(OC)c(OC)c4c2[C@H](C3)N(C)CC4)cc1OC [ME, methoxadiantifoline] = 6.01

###

# Test system: CQ-sensitive (FCMSU1/Sudan) strain of P. falciparum
# assay name: 3H-adenosine incorporation, chloroquine-sensitive P. falciparum
# Format: cell-based
# assay context: Plasmodium falciparum; Table VII; chloroquine-sensitive strain; drug alone; read-out: IC50 S
assay readout: IC50 (nM)

COc1cc(C[C@H]2c3cc(OC)c(OC)cc3CCN2C)c(Oc2cc3c(cc2OC)-c2c(OC)c(OC)cc4c2[C@H](C3)N(C)CC4)cc1OC = 1700

###

# System: CQ-sensitive (FCMSU1/Sudan) strain of P. falciparum
# assay name: 3H-adenosine incorporation, chloroquine-sensitive P. falciparum
# Type: cell-based
# assay context: Plasmodium falciparum, read-out: IC50 S
pIC50: −log10 of the molar value.
assay readout: pIC50

COc1ccc2cc1Oc1ccc(cc1)C[C@H]1c3c(cc4c(c3Oc3cc5c(cc3OC)CCN(C)[C@@H]5C2)OCO4)CCN1C [CE, cepharanthine] = 6.00
COc1cc(C[C@H]2c3cc(OC)c(OC)c(OC)c3CCN2C)c(Oc2cc3c(cc2OC)-c2c(OC)c(OC)c(OC)c4c2[C@H](C3)N(C)CC4)cc1OC [ME, methoxadiantifoline] = 5.28

Taken from patent US6911454B1.
